Reference source: patent US20240116985A1

Target: T1, B-cat-Halo (UniProt P35222 1-781)
T1 sequence (looked up): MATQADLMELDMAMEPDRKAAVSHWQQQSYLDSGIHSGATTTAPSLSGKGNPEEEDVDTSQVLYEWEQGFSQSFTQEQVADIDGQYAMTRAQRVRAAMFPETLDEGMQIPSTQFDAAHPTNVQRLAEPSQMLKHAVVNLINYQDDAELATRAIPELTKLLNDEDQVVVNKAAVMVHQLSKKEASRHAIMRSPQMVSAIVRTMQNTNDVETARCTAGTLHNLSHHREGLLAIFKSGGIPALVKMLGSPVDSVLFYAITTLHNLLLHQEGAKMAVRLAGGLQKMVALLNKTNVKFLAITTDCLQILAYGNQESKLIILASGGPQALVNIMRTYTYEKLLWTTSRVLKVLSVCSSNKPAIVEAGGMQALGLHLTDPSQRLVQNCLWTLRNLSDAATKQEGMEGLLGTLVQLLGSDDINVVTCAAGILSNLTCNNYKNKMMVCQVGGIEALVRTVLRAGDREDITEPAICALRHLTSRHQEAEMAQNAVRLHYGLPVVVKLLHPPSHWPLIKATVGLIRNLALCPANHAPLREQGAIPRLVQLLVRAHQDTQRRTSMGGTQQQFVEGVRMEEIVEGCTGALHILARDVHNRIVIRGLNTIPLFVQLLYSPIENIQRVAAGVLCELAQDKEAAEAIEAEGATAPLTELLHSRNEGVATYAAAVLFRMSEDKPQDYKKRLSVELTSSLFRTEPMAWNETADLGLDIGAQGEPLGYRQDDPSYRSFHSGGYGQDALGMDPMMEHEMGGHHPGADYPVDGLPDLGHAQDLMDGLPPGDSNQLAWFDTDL
Assay: cell-based or functional assay
Starred links: 1 amine or outer side, 2 acyl side, 3 side chain; linkers in the order of their positions; H or OH if unused. Positions of bridges follow the written chain, without caps; N, C: chain ends. Non-standard residues stand in square brackets, D forms with d. Primed or numbered codes have the meaning given here. No end group written: not given here. PyrS2″ = (S)-3-amino-1-((pent-4-en-1-yloxy)carbonyl)pyrrolidine-3-carboxylic acid (stapling residue), C=CCCCOC(=O)N1CC[C@@](N[*:1])(C(=O)[*:2])C1; B5(4) = 2,2-bis(4-pentenyl)glycine = 2-amino-2-(pent-4-en-1-yl)hept-6-enoic acid (stitching residue), C=CCCCC(CCCC=C)(N[*:1])C(=O)[*:2]; Phe(2-CF3) = N[C@@H](Cc1ccccc1C(F)(F)F)C(=O)O; Phe(2-Cl) = N[C@@H](Cc1ccccc1Cl)C(=O)O; Phe(2-OMe) = COc1ccccc1C[C@H](N)C(=O)O; Bta = N[C@@H](Cc1csc2ccccc12)C(=O)O; Lys(iPr) = CC(C)NCCCC[C@H](N)C(=O)O; αAllylPro = C=CC[C@@]1(C(=O)O)CCCN1; tBuAla = CC(C)(C)C[C@H](N)C(=O)O; Thr(ol) = C[C@@H](O)[C@H](N)CO
Hi! Could you tag entries with NanoBRET Abs IC50 below 5 µM as 1, and those at or above as 0? Much appreciated.

Worked set:
>>> df
                                     binder  cat
0  [αAllylPro]D[tBuAla][B5(4)]DDAAFF[PyrS2″][Phe(2-OMe)][Bta]Q-NH2 (staple 1-4, 4-11) [I-1328]    0
1  Ac-[αAllylPro]D[tBuAla][B5(4)]DD[Lys(iPr)]AFL[PyrS2″][Phe(2-Cl)][Bta][Thr(ol)] (staple 1-4, 4-11) [I-1313]    0

Answer whether the binder Ac-[αAllylPro]D[tBuAla][B5(4)]DDAAFF[PyrS2″][Phe(2-CF3)][Bta]Q-NH2 (staple 1-4, 4-11) [I-1319] has NanoBRET Abs IC50 strictly less than 5 µM
1
